Test system: Streptococcus pneumoniae ATCC 49619
experiment.description: Broth microdilution MIC, S. pneumoniae ATCC 49619
Assay type: cell-based
condition.parameters: ATCC49619, broth microdilution, 37° C., 20 hours, read-out: MIC S. pneumoniae ATCC 49619
reported.metric: MIC (mg/L)

Cl.Cl.O=c1[nH]c(NCc2ccc(Cl)c(Cl)c2)nc2cnn(C3CCN(CC4CCNCC4)CC3)c12	8

[A] CC(C)(C)NCCn1ncc2nc(NCc3ccc(Cl)c(Cl)c3)[nH]c(=O)c21
[B] O=c1[nH]c(NCc2ccc(Cl)c(Cl)c2)nc2cnn(CC(CO)N3CCOCC3)c12 (stereo not drawn)
[C] CCOC(=O)CCCCn1ncc2nc(NCc3ccc(Cl)c(Cl)c3)[nH]c(=O)c21
Ask: Order the entries by their reported MIC, beginning at the minimum. Rank them, then answer with their labels in that order.
Result: A, C, B

[1] O=c1[nH]c(NCc2ccc(Cl)c(Cl)c2)nc2cnn(CCSCCO)c12
[2] [2H]C([2H])(Nc1nc2cnn(CCOCCO)c2c(=O)[nH]1)c1ccc(Cl)c(Cl)c1
[3] O=c1[nH]c(NCc2ccc(Cl)c(Cl)c2)nc2c(Br)nn(CCOCCO)c12
[4] COc1cc(CNc2nc3cnn(C)c3c(=O)[nH]2)ccc1Cl
Ask: Arrange the 4 compounds from largest to smallest MIC. Return value: ordered labels per request.
Result: 4, 3, 2, 1

----------
Below, each entry is listed with its recorded MIC.
System: Enterococcus faecium ATCC 700221 (VRE)
experiment.description: Broth microdilution MIC, E. faecium ATCC 700221 (VRE)
Format: cell-based
condition.parameters: Enterococcus faecium; broth microdilution, 37° C., 20 hours; read-out: MIC E. faecium ATCC 700221 (VRE)

Look over these answered cases.
Cn1ncc2nc(Nc3ccc4c(c3)COC4)[nH]c(=O)c21	> 64 µg/mL
COC(=O)C(C)n1cc2nc(NCc3ccc(Cl)c(Cl)c3)[nH]c(=O)c2n1 (stereo not drawn)	> 64 µg/mL

As a next step, examine the molecule that follows.
Ask: In one line, give reported MIC of the entry COc1ccc(Cn2ncc3nc(NCc4ccc(Cl)c(Cl)c4)[nH]c(=O)c32)cc1OC .
Result: > 64 µg/mL

----------
Tested on: Enterococcus faecium ATCC 700221 (VRE)
experiment.description: Broth microdilution MIC, E. faecium ATCC 700221 (VRE)
Format: cell-based
condition.parameters: Enterococcus faecium; broth microdilution, 37° C., 20 hours; read-out: MIC E. faecium ATCC 700221 (VRE)
From the text: Bacteria tested are Staphylococcus aureus NRS384 (a methicillin-resistant Staphylococcus aureus, MRSA), Staphylococcus aureus ATCC 29213 (a methicillin-sensitive Staphylococcus aureus, MSSA), Streptococcus pneumoniae ATCC 49619, Enterococcus faecalis ATCC 29212, Enterococcus faecium ATCC 700221 (a vancomycin-resistant enterococcus, VRE), Bacillus subtilis ATCC 6633, and Escherichia coli ATCC 25922. […]
reported.metric: MIC (µg/mL)

Take a look at these entries with their results.
COCC(CN(C)C)OCCn1ncc2nc(NCc3ccc(Cl)c(Cl)c3)[nH]c(=O)c21.Cl (stereo not drawn) [Compound 183]	32
O=c1[nH]c(NCc2ccc(Cl)c(Cl)c2)nc2cnn(C[C@@H]3CO[C@@H](CO)CO3)c12 [Compound 207]	4

[I] COCCN1CC(Cn2ncc3nc(NCc4ccc(Cl)c(Cl)c4)[nH]c(=O)c32)CC1=O (stereo not drawn) [Compound 176]
[II] O=c1[nH]c(NCc2ccc(F)c(F)c2)nc2cnn(CC3CCO3)c12 (stereo not drawn) [Compound 125]
[III] COC/C=C/Cn1ncc2nc(NCc3ccc(Cl)c(Cl)c3)[nH]c(=O)c21 [Compound 192]
Ask: In this exercise, place the 3 compounds in ascending sequence of their recorded MIC. List the labels, following the order given in the request.
Result: III, I, II
(III: 2 µg/mL, I: 4 µg/mL, II: 32 µg/mL)
